method.notes: chemical genetic growth profiling, strain panel (AID 1159580);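 note: tested at 20 µM; growth read once vehicle control cultures reached saturation at 30 °C; 1 = growth at the plate median or of vehicle wells; lower values mean less growth of the strain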
recorded.conditions: S. cerevisiae deletion strains, growth OD, locus YGL078C, strain dbp3, hits give low values
Hit rate of the full screen: of about 5,500 compounds, about 2,000 (36%) were called active. Inconclusive results (about 18%) are left out. The list shows a part of the results.
reported.endpoint: normalized growth
The reply should be a number, written without any unit.

Some molecules with recorded normalized growth:
molecule	numeric.result
O=C(/C=C/c1ccc(O)cc1)c1ccc(O)cc1O	1.01
N[C@@H](C(=O)N[C@@H]1C(=O)N2C(C(=O)O)=C(Cl)CS[C@H]12)c1ccccc1	1.02
O=C(/C=C/c1ccccc1)c1c(O)cc(O)cc1O	1

### Prompt // lookup normalized growth for `COc1cc(OC)c2c(OC)c(-c3ccc4c(c3)OCO4)c(=O)oc2c1`
### Response 0.99

### Prompt // lookup normalized growth for `COc1cc2cccc(OC)c(=O)c2c(OC)c1OC`
### Response 1

### Prompt // lookup normalized growth for COC(=O)C[C@H]1C(C)(C)[C@H](O)[C@@H]2CC3=C4CC(O)O[C@@H](c5ccoc5)[C@]4(C)CCC3[C@@]1(C)C2=O (some centres undefined)
### Response 1.03

### Prompt // lookup normalized growth for `O=C(O)CC[N+](=O)[O-]`
### Response 0.979

====

method.notes: chemical genetic growth profiling, strain panel (AID 1159580);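 note: tested at 20 µM; growth read once vehicle control cultures reached saturation at 30 °C; 1 = growth at the plate median or of vehicle wells; lower values mean less growth of the strain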
recorded.conditions: S. cerevisiae deletion strains, growth OD, locus YOL006C, strain TOP1
The campaign covered roughly 5,500 compounds. About 2,000 (36%) were called active. About 18% were inconclusive and are not listed. No stated cut-off is given here; in the data, active means normalized growth mostly below about 0.91 (no sharp cut-off); inconclusive means no clear call, values can overlap the other calls; inactive means mostly above about 0.92. Some of the results follow.
Please answer using one outcome listed in active, inactive

> print(dat)
                                item.smiles  group.label
1  Nc1nc(Sc2ccc(C(F)(F)F)cc2[N+](=O)[O-])n[nH]1     inactive
2      C[C@]12CC[C@@H](O)C[C@H]1CCc1ccccc12     inactive
3  Cc1c(C)c(C)c(S(=O)(=O)Nc2ccccc2N)c(C)c1C     inactive
4  FC(F)(F)c1cc(-c2ccc(Cl)cc2)nc2cc(C3CC3)nn12     inactive
5                      O=C(O)c1cccnc1C(=O)O     inactive

### Prompt Which outcome did this test record for the compound `Nc1nc(Sc2cc(-n3cccc3)c(Cl)cc2[N+](=O)[O-])n[nH]1` ?
### Response inactive

### Prompt Which outcome did this test record for the compound `CC(=O)Nc1ccc(S(=O)(=O)NCCCN2CCN(Cc3ccccc3)CC2)cc1Cl` ?
### Response inactive

### Prompt Which outcome did this test record for the compound `COc1cc2cccc(OC)c(=O)c2c(OC)c1OC` ?
### Response inactive

====

method.notes: chemical genetic growth profiling, strain panel (AID 1159580);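 note: tested at 20 µM; growth read once vehicle control cultures reached saturation at 30 °C; 1 = growth at the plate median or of vehicle wells; lower values mean less growth of the strain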
recorded.conditions: S. cerevisiae deletion strains, growth OD, locus YNL322C, strain KRE1, hits give low values
Hit rate of the full screen: of about 5,500 compounds, about 2,000 (36%) were called active. Not shown: some 18% with an inconclusive outcome. The list shows a part of the results.
Recorded measurements of normalized growth, one per entry
The reply should be a number, written without any unit.

Some molecules with recorded normalized growth:
> print(dat)
                                   molecule  numeric.result
1           CC(=O)N[C@H](C(=O)O)C(C)(C)SN=O            1.01
2  CC(C)C1CCC(C(=O)N[C@@H](Cc2ccccc2)C(=O)O)CC1 (stereo partly specified)           0.998
3         O=C1c2ccccc2C(=O)N1CNc1cccc(Cl)c1            1.01
4              Cn1c(=O)c2c(ncn2CCO)n(C)c1=O               1
5                    CCCc1ccc(/C(C)=N\O)cc1           0.919

### Prompt // lookup normalized growth for CCCC(=O)Nc1ccc(OCC(O)CNC(C)C)c(C(C)=O)c1 (stereo unspecified)
### Response 1.01

### Prompt // lookup normalized growth for `Cc1cc(N=C(N)N=C(N)N)no1`
### Response 1

### Prompt // lookup normalized growth for `C=C[C@H]1CN2CC[C@H]1C[C@H]2[C@H](O)c1ccnc2ccccc12`
### Response 1

### Prompt // lookup normalized growth for `CC(C)[C@@H]1CC[C@@H](C)CC1=O`
### Response 1.01

### Prompt // lookup normalized growth for `CC(C)(C)S(=O)(=O)c1cnc(N)nc1N`
### Response 1.02

### Prompt // lookup normalized growth for `N#CCC(=O)N(Cc1ccccc1F)C(=O)NC1CCCCC1`
### Response 1.01

### Prompt // lookup normalized growth for `CCOC(=O)c1ccc(N2CCOCC2)c(N=Cc2cc(Cl)ccc2O)c1`
### Response 0.99

### Prompt // lookup normalized growth for O=C1C(=O)c2ccccc2C(O)=C1C1CCC(c2ccc(Cl)cc2)CC1 (stereo unspecified)
### Response 1

### Prompt // lookup normalized growth for `C/C(=N/O)c1ccn(S(=O)(=O)c2ccc(Cl)cc2)c1`
### Response 0.983

### Prompt // lookup normalized growth for `CC(=O)OCCCCN1C(=O)c2ccccc2C1=O`
### Response 1

### Prompt // lookup normalized growth for `CCOC(=O)c1ccc(Oc2ncc(C(F)(F)F)cc2Cl)cc1`
### Response 0.986

### Prompt // lookup normalized growth for `N/C(=N/O)c1cnccc1C(F)(F)F`
### Response 1

### Prompt // lookup normalized growth for `Cn1c(=O)[nH]c2nc[nH]c2c1=O`
### Response 1.01

### Prompt // lookup normalized growth for `CCCCCC/C=C\CCCCCCCc1cccc(O)c1C(=O)O`
### Response 1

### Prompt // lookup normalized growth for `OC[C@H]1O[C@@H](n2cnc3c(NC4CCCCC4)ncnc32)[C@H](O)[C@@H]1O`
### Response 1.02

### Prompt // lookup normalized growth for `O=C1NCCN=C(c2ccccc2)c2ccccc21`
### Response 0.994
